For each record, write down the corresponding pEC50.
target: human calcitonin receptor (CTR) and RAMP3 (AMY3) in COS-7 cells (Homo sapiens, UniProt O60896+P30988); assay: Amylin Receptor cAMP Assay I; type: cell-based; conditions: values marked *: Amylin Receptor cAMP Assay I; COS-7/AMY3 cells; read-out: Amylin Receptor cAMP Stimulation Activity: EC50
Sequence (P30988 25-474): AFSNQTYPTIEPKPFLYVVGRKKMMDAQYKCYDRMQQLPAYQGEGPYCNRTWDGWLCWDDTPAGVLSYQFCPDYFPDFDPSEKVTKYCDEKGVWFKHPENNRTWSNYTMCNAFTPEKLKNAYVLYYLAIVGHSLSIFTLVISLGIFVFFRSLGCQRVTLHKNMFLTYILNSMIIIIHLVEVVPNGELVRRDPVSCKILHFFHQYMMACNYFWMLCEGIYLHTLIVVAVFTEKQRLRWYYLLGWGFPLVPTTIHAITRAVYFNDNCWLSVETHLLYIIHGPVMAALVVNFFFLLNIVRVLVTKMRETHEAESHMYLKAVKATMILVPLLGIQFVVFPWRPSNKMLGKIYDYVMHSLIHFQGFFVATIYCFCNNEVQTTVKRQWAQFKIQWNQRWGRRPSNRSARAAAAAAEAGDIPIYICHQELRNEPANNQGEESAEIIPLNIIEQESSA
Sequence (O60896 24-148): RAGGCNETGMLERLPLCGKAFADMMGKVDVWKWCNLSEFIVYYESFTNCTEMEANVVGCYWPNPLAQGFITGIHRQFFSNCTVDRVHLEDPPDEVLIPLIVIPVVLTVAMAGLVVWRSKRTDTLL
One number for each entry, as −log10 of the molar value.

>  <MOLECULE>
Cc1nnc(-c2c(CCc3cnn(C)c3)nc(CC(C)C)c(C(N)=O)c2-c2ccc(C(=O)NCc3ccc(F)c(F)c3)s2)o1 [Compound 184]

>  <pEC50>
5.97

$$$$
>  <MOLECULE>
Cc1nnc(-c2c(OCc3ccc(F)cc3)nc(CC(C)C)c(C(N)=O)c2-c2ccc(C(=O)NCc3ccc(F)c(F)c3)s2)o1 [Compound 146]

>  <pEC50>
6.01

$$$$
>  <MOLECULE>
Cc1noc(-c2c(CCc3ccc(F)cc3)nc(CC(C)C)c(C(N)=O)c2-c2ccc(C(=O)N[C@@H]3CCc4ccccc43)s2)n1 [Compound 101]

>  <pEC50>
7.07

$$$$

// each listed molecule needs a value for pEC50
1. Cc1nnc(-c2c(CC(F)c3ccc(F)cc3)nc(CC(C)C)c(C(N)=O)c2-c2ccc(C(=O)N[C@@H]3CCc4ccccc43)s2)o1 (stereo partly shown) [Compound 187]
2. Cc1cc(-c2c(CCc3ccc(F)cc3)nc(CC(C)C)c(C(N)=O)c2-c2ccc(C(=O)NCc3ccc(F)c(F)c3)s2)on1 [Compound 151]
3. Cc1nnc(-c2c(CCc3ccc(F)cc3)nc(CC(C)C)c(C(N)=O)c2-c2ccc3c(NCc4ccc(F)c(F)c4)nccc3c2)o1 [Compound 162]

Reply |
[7.00, 6.87, 7.13]

Ask | Given COC(Cc1nc(CC(C)C)c(C(N)=O)c(-c2ccc(C(=O)NCc3ccc(F)c(F)c3)s2)c1-c1nnc(C)o1)c1ccc(F)cc1 (stereo not shown) [Compound 186] , state its recorded pEC50.
Reply | 6.91

---

molecular target: human calcitonin receptor (CTR) and RAMP3 (AMY3) in COS-7 cells (Homo sapiens, UniProt O60896+P30988); test: Amylin Receptor cAMP Assay I; assay type: cell-based; settings: values marked *: Amylin Receptor cAMP Assay I; COS-7/AMY3 cells; read-out: Amylin Receptor cAMP Stimulation Activity: EC50
MEASURED PROPERTY: log10(EC50) (log10 of the value in nM)
Remember, log10 of EC50, in nM.

// each listed compound needs a value for log10(EC50)
1. Cc1nnc(-c2c(CCc3ccc(F)cc3)nc(CC(C)C)c(C(N)=O)c2-c2cc3cccc(N[C@@H]4CCc5ccccc54)c3s2)o1
2. Cc1nnc(-c2c(COc3ccc(F)cc3)nc(CC(C)C)c(C(N)=O)c2-c2cc3ccnc(N[C@@H]4CCc5ccccc54)c3s2)o1
3. Cc1nnc(-c2c(CCc3ccc(F)cc3)nc(CC(C)C)c(C(N)=O)c2-c2cc3ccnc(NCc4ccc(F)c(F)c4)c3s2)o1
4. Cc1nnc(-c2c(CCc3ccc(F)cc3)nc(CC(C)C)c(C(N)=O)c2-c2cc3ccnc(N[C@@H]4CCc5ncccc54)c3s2)o1
5. Cc1nnc(-c2c(CCc3ccc(F)cc3)nc(CC(C)C)c(C(N)=O)c2-c2cc3ccnc(NCc4ccccn4)c3s2)o1

Reply |
0.11
2.32
0.64
1.11
2.44

---

biological target: human calcitonin receptor (CTR) and RAMP3 (AMY3) in COS-7 cells (Homo sapiens, UniProt O60896+P30988); assay: Amylin Receptor cAMP Assay I; assay type: cell-based; conditions: values marked *: Amylin Receptor cAMP Assay I; COS-7/AMY3 cells; read-out: Amylin Receptor cAMP Stimulation Activity: EC50
Y if EC50 is below 0.1 µM. N if not; exact matches included in N.

Please review the entries below; each comes with its answer.
>  <STRUCTURE>
Cc1nnc(-c2c(CCc3ccc(F)cc3)nc(CC(C)C)c(C(N)=O)c2-c2ccc(C(=O)NCc3ccccc3)s2)o1

>  <ANSWER LABEL>
Y

$$$$
>  <STRUCTURE>
COCC1CN(c2nccc3cc(-c4c(C(N)=O)c(CC(C)C)nc(CCc5ccc(F)cc5)c4-c4nnc(C)o4)sc23)C1

>  <ANSWER LABEL>
N

$$$$

Ask | Decide: EC50 of Cc1nnc(-c2c(NCc3ccc(F)cc3)nc(CC(C)C)c(C(N)=O)c2-c2ccc(C(=O)NCc3ccc(F)c(F)c3)s2)o1 strictly below 0.1 µM?
Reply | N

Ask | Decide: EC50 of Cc1nnc(-c2c(CCCC(C)C)nc(CC(C)C)c(C(N)=O)c2-c2ccc(C(=O)NCc3ccc(F)c(F)c3)s2)o1 strictly below 0.1 µM?
Reply | Y

Ask | Decide: EC50 of Cc1ccc(-c2c(CCc3ccc(F)cc3)nc(CC(C)C)c(C(N)=O)c2-c2ccc(C(=O)NCc3ccc(F)c(F)c3)s2)cn1 strictly below 0.1 µM?
Reply | Y

Ask | Decide: EC50 of Cc1nnc(-c2c(CCc3ccc(F)cc3)nc(CC(C)C)c(C(N)=O)c2-c2ccc3c(c2)CCCN3CCc2ccc(F)c(F)c2)o1 strictly below 0.1 µM?
Reply | N

Ask | Decide: EC50 of Cc1cnc(-c2c(CCc3ccc(F)cc3)nc(CC(C)C)c(C(N)=O)c2-c2ccc(C(=O)NCc3ccc(F)c(F)c3)s2)o1 strictly below 0.1 µM?
Reply | Y

Ask | Decide: EC50 of Cc1noc(-c2c(CCc3ccc(F)cc3)nc(CC(C)C)c(C(N)=O)c2-c2ccc(-c3cn(Cc4ccc(F)c(F)c4)nn3)s2)n1 strictly below 0.1 µM?
Reply | N

Ask | Decide: EC50 of Cc1cc(CNc2nccc3cc(-c4c(C(N)=O)c(CC(C)C)nc(CCc5ccc(F)cc5)c4-c4nnc(C)o4)sc23)ccn1 strictly below 0.1 µM?
Reply | N

Ask | Decide: EC50 of Cc1ccc(CCc2nc(CC(C)C)c(C(N)=O)c(-c3ccc(C(=O)N[C@@H]4CCc5ncccc54)s3)c2-c2nnc(C)o2)nc1 strictly below 0.1 µM?
Reply | N

Ask | Decide: EC50 of Cc1nnc(-c2c(CCc3ccc(F)cc3)nc(CC(C)C)c(C(N)=O)c2-c2ccc(C(=O)NCc3ccc(F)c(F)c3)s2)s1 strictly below 0.1 µM?
Reply | Y

---

Molecular target: human calcitonin receptor (CTR) and RAMP3 (AMY3) in COS-7 cells (Homo sapiens, UniProt O60896+P30988)
Assay: Amylin Receptor cAMP Assay I
Assay type: cell-based
Details: values marked *: Amylin Receptor cAMP Assay I; COS-7/AMY3 cells; read-out: Amylin Receptor cAMP Stimulation Activity: EC50
Procedure: Amylin Receptor cAMP Assay I AMYRs are heterodimers of the class B calcitonin (CT) G-protein-coupled receptor (CTR) and receptor activity-modifying proteins (RAMPs). […] After incubation, the cAMP assay signal was generated using cAMP Hi-range Kit (Cisbio). […] The samples were then incubated at room temperature for 1 hour protected from light. the fluorescence was read at 665 and 615 nm with Reader PerkinElmer EnVision.
MEASURED PROPERTY: EC50

The examples below pair each entry with its known result.
>  <COMPOUND>
Cc1nnc(-c2c(CCN3CCCCC3)nc(CC(C)C)c(C(N)=O)c2-c2ccc(C(=O)NCc3ccc(F)c(F)c3)s2)o1 [Compound 179]

>  <EC50>
> 1000 nM

$$$$
>  <COMPOUND>
COC1CCCN(c2nccc3cc(-c4c(C(N)=O)c(CC(C)C)nc(CCc5ccc(F)cc5)c4-c4nnc(C)o4)sc23)C1 (stereo not drawn) [Compound 135]

>  <EC50>
> 1000 nM

$$$$

// moving on: another record for EC50
Ask | Given Cc1nnc(-c2c(CCC(F)F)nc(CC(C)C)c(C(N)=O)c2-c2ccc(C(=O)NCc3ccc(F)c(F)c3)s2)o1 [Compound 189] , state its recorded EC50.
Reply | > 1000 nM

// provenance: patent US20250042916A1
